Consider molecules characterized by their GI50 with HCT-15.

The following molecules have reported results that may help.
> print(dat)
                                   molecule  metric  reported.measurement
1  CC(C1=CC=C2[C@@H]3CCC4CC(N(C)C)CC[C@]4(C)C3CC[C@]12C)N(C)C=O (stereo partly specified)    GI50              > 100 µM
2  C#CCN(CC#C)C(=O)C(=O)c1c[nH]c2ccc(OC)cc12    GI50               15.5 µM
3  O=C(c1ccccc1)C1C(C(=O)c2ccccc2)C(c2ccccc2)N(c2ccccc2)C1c1ccccc1 (stereo unspecified)    GI50              > 100 µM
4            CC1(C)N=c2c(ncn2N)=C(C(N)=O)N1    GI50              > 100 µM

Ask: Recorded GI50 for CCN(CC)C1=Nc2ccccc2-n2ccnc2C1 with HCT-15, please?
Reply: > 100 µM

Ask: Recorded GI50 for CCOC(=O)c1cc(C2CCN(CC(C)CC)C2=S)c(-c2cc(C)no2)[nH]1 (stereo unspecified) with HCT-15, please?
Reply: > 100 µM

Ask: Recorded GI50 for c1cncc(CNc2ncn[nH]2)c1 with HCT-15, please?
Reply: > 100 µM

Ask: Recorded GI50 for COc1ccc2cc(/C=N/NC(=O)Nc3ccccc3)ccc2c1 with HCT-15, please?
Reply: > 100 µM

* * *

- Tested on: M14
- experiment description: NCI tumour cell line growth inhibition, 48 h
Activity calls are given as the source filed them. No stated cut-off is given here; in the data, active = GI50 up to about 1.1 µM and inactive = higher.
Respond using exactly one of the listed classes: class 1 = active, class 0 = inactive

compound	assigned label
CCCCCCCNC(P(=O)(O)O)P(=O)(O)O	class 0
O=[N+]([O-])c1ccc(N2N=C(c3c(O)ccc4ccccc34)CC2c2ccc(Cl)cc2)c([N+](=O)[O-])c1 (configuration not stated)	class 0
COC(=O)C1OC(O[C@H]2CC[C@]3(C)[C@H]4CC=C5[C@@H]6CC(C)(C)CC[C@]6(C(=O)OC6OCC(O)C(O)C6OC6OC(C)C(OC7OCC(O)C(O)C7O)C(OC7OCC(O)(CO)C7O)C6O)[C@H](O)C[C@@]5(C)[C@]4(C)CC[C@H]3C2(C)C)C(O)C(O)C1O (some centres not stated)	class 0
COc1cc(OCCN(C)C)c2[nH]c(C(=O)N3CC(CCl)c4c3cc(N)c3ccccc43)cc2c1 (configuration not stated)	class 1

Ask: Test call for this compound, please: CCC(C(=O)c1ccccc1)C(CCCC(=O)Nc1c(C)cccc1C)N=O (configuration not stated)
Reply: class 0

Ask: Test call for this compound, please: CC1(C)S[C@@H]2[C@H](NC(=O)[C@H](N)c3ccccc3)C(=O)N2[C@H]1C(=O)O
Reply: class 0

Ask: Test call for this compound, please: N#Cc1cc2c(cc1C#N)/C(=N\c1cccc(N)n1)N/C2=N\c1cccc(N)n1
Reply: class 0

* * *

- Tested on: NCI-H226
- experiment description: NCI tumour cell line growth inhibition, 48 h
Activity calls are given as the source filed them. Rule as the data show it: active = GI50 up to about 1.1 µM and inactive = higher.
Respond using exactly one of the listed classes: active, inactive

Ask: Test call for this compound, please: O=c1[nH]c2c3ccccc3ccc2c2cc3c(cc12)OCO3
Reply: inactive

Ask: Test call for this compound, please: COC(O)C(=O)c1ccc2c(c1)CC1(C2)Cc2cc3c(cc2C1=O)CCC3 (stereo not drawn)
Reply: inactive

Ask: Test call for this compound, please: Cc1sc(Nc2ccc(Nc3nc(-c4ccccc4)c(C)s3)cc2)nc1-c1ccccc1
Reply: inactive

* * *

- Tested on: UACC-257
- experiment description: NCI tumour cell line growth inhibition, 48 h
Activity calls are given as the source filed them. Rule as the data show it: active = GI50 up to about 1.1 µM and inactive = higher.
GI50 by entry:

Ask: Recorded GI50 for OCc1ccc2c(c1)CC1(C2)Cc2cc3c(cc2C1O)CCC3 (stereo not given) with UACC-257, please?
Reply: 2.3 µM (inactive)

Ask: Recorded GI50 for COC(=O)[C@H]1CO[C@H]2C/C(C)=C/CC/C(C)=C/CC[C@@]3(C)O[C@@H]3C[C@H]21 with UACC-257, please?
Reply: 18.4 µM (inactive)

Ask: Recorded GI50 for CC1=CCC[C@@H]2[C@@](C)(Cc3cc(O)ccc3O)[C@H](C)CC[C@@]12C with UACC-257, please?
Reply: 11.5 µM (inactive)

Ask: Recorded GI50 for CCN1C(=O)C(N=[N+]=[N-])(c2ccccc2)C(=O)c2ccccc21 (stereo not given) with UACC-257, please?
Reply: 46.6 µM (inactive)

Ask: Recorded GI50 for CCCCCCCNC(P(=O)(O)O)P(=O)(O)O with UACC-257, please?
Reply: > 100 µM (inactive)

* * *

- System: SNB-19
- experiment description: NCI tumour cell line growth inhibition, 48 h
Activity calls are given as the source filed them. No stated cut-off is given here; in the data, active = GI50 up to about 1.1 µM and inactive = higher.
GI50 by entry:

The following molecules have reported results that may help.
> print(dat)
                                   molecule  metric  reported.measurement
1    COc1ccc2cc(/C=N/NC(=O)Nc3ccccc3)ccc2c1    GI50   > 100 µM (inactive)
2  Cc1ccc(S(=O)(=O)N/N=C/c2c(O)ccc3ccccc23)cc1    GI50    41.1 µM (inactive)
3  O=C(Nc1ccc2ccccc2c1)c1cc2cc(CCl)ccc2oc1=O    GI50    27.6 µM (inactive)

Ask: Using the record for Cc1sc(N)c(S(=O)(=O)c2ccccc2)c1C , report its GI50.
Reply: > 100 µM (inactive)

Ask: Using the record for Brc1ccc(/C(N=N/C(=N\Sc2ccccc2)c2ccc(Br)cc2)=N/Sc2ccccc2)cc1 , report its GI50.
Reply: > 100 µM (inactive)

Ask: Using the record for CC1CC/C(=C\c2ccc(F)cc2)C2=C1C(c1ccc(F)cc1)N1C(=O)CSC1=N2 (centres undefined) , report its GI50.
Reply: > 100 µM (inactive)

* * *

- System: M14
- experiment description: NCI tumour cell line growth inhibition, 48 h
Active and inactive are the calls of the source. No stated cut-off is given here; in the data, active = GI50 up to about 1.1 µM and inactive = higher.
Respond using exactly one of the listed classes: active, inactive

Ask: Test call for this compound, please: CCN1CCC(O)(/C=C/c2ccc(Cl)c(Cl)c2)C(C(=O)/C=C/c2ccc(Cl)c(Cl)c2)C1 (stereo unspecified)
Reply: active

Ask: Test call for this compound, please: CCOC(=O)C(=CNc1ccc(S(N)(=O)=O)cc1)C(=O)OCC
Reply: inactive

Ask: Test call for this compound, please: CC(=O)C1C(=O)C(=O)N(c2ccccc2C(C)C)C1=O (stereo unspecified)
Reply: inactive

Ask: Test call for this compound, please: O=C(CC(C(=O)c1ccsc1)c1ccsc1)c1ccsc1 (stereo unspecified)
Reply: inactive

Ask: Test call for this compound, please: CCCCCCCCCCCCCC[S+](C)C
Reply: inactive

Ask: Test call for this compound, please: CC1=C(C(=O)Nc2ccc([N+](=O)[O-])cc2)C(c2ccccc2F)C(C(=O)Nc2ccc([N+](=O)[O-])cc2)=C(C)N1
Reply: inactive

Ask: Test call for this compound, please: COC(=O)C1CCC(=S)N1C(=O)c1ccccc1 (stereo unspecified)
Reply: inactive

Ask: Test call for this compound, please: Nc1nc(SCCC/C=C/I)nc2c1ncn2C1OC(CO)C(O)C1O (stereo unspecified)
Reply: inactive

Ask: Test call for this compound, please: Nc1c([N+](=O)[O-])nc(Cl)c2nncn12
Reply: inactive

Ask: Test call for this compound, please: CCCCCCCCCCC(C)CCCCCCC(=O)O (stereo unspecified)
Reply: inactive

Ask: Test call for this compound, please: CCOC(=O)/C(=C/c1ccc(C#N)cc1)N(CC)CC
Reply: inactive

* * *

- Test system: HT-29
- experiment description: NCI tumour cell line growth inhibition, 48 h
Calls of active or inactive are those of the source. Cut-off read from the data, not from the text of the source: active = GI50 up to about 1.1 µM and inactive = higher.
metric: GI50

Ask: Recorded GI50 for CCOC(=O)c1ccc(N[C@@H]2c3cc4c(cc3C(c3cc(OC)c(O)c(OC)c3)[C@H]3C(=O)OCC32)OCO4)cc1O (stereo partly specified) with HT-29, please?
Reply: 0.546 µM (active)

Ask: Recorded GI50 for COc1ccc(/C=C/c2cc(OC)c(OC)c(OC)c2)cc1O[Si](C)(C)C(C)(C)C with HT-29, please?
Reply: 37.9 µM (inactive)

Ask: Recorded GI50 for O=C(NO)C(=O)Nc1cc(Cl)ccc1Cl with HT-29, please?
Reply: > 100 µM (inactive)

Ask: Recorded GI50 for Cc1c(O)nc(-n2[nH]c3c(c2=O)CCCC3)[nH]c1=O with HT-29, please?
Reply: > 100 µM (inactive)

Ask: Recorded GI50 for O=[PH]1c2ccccc2Nc2ccccc21 with HT-29, please?
Reply: 51.6 µM (inactive)

Ask: Recorded GI50 for CN1COc2c(n(C)c(=O)[nH]c2=O)C1 with HT-29, please?
Reply: > 100 µM (inactive)

Ask: Recorded GI50 for C=CCC1(O)c2ccccc2C(=O)c2c(O)ccc(O)c21 (stereo unspecified) with HT-29, please?
Reply: 7.28 µM (inactive)

Ask: Recorded GI50 for COc1ccc(C)cc1NC(=S)N/N=C/c1ccco1 with HT-29, please?
Reply: 29 µM (inactive)

Ask: Recorded GI50 for COc1ccc2c(c1O)C13CCN(C)C(C2)C1CCC1(C3)OCCO1 (stereo unspecified) with HT-29, please?
Reply: > 100 µM (inactive)

Ask: Recorded GI50 for CCN1C(=O)C(N=[N+]=[N-])(c2ccccc2)C(=O)c2ccccc21 (stereo unspecified) with HT-29, please?
Reply: > 100 µM (inactive)

Ask: Recorded GI50 for CC1(C)N=c2c(ncn2N)=C(C(N)=O)N1 with HT-29, please?
Reply: > 100 µM (inactive)

Data origin: ChEMBL document CHEMBL1201862
